target: h2E2 humanized anti-cocaine mAb; assay: differential scanning fluorimetry; format: binding, Homo sapiens; conditions: read-out: Avg Kd (nM) ± Std. Dev. (fold increase vs unmodified h2E2 mAb)
quantity.measured: Kd (nM)
Just the number please, in nM, no unit attached.

query: Lab request: please report Kd under test system h2E2 humanized anti-cocaine mAb for COC(=O)[C@H]1[C@@H](OC(=O)c2ccccc2)C[C@@H]2CC[C@H]1N2C
result: 53

query: Input CCOC(=O)[C@H]1[C@@H](OC(=O)c2ccccc2)C[C@@H]2CC[C@H]1N2C
result: 20.7

query: Please do the same for CN1[C@H]2CC[C@@H]1[C@@H](C(=O)O)[C@@H](OC(=O)c1ccccc1)C2 as well.
result: 177
